- study-target: T1, Claudin 18.2 (CLDN18.2), expressed on CHOS-CLDN 18.2 / HEK293-CLDN 18.2 / HCC827-CLDN 18.2 cells (human, UniProt P56856-2 1-261)
- T1 construct: whole, on cells; The species is not repeated for the CHOS-CLDN 18.2 cells; also called claudin-18A2
- procedure-summary: FACS, CHOS-CLDN18.2 cells, 0.313 µg/ml

| binder | FACS reading |
| --- | --- |
| QP14641462 (antibody, human IgG1, kappa, V domains shown, Humanized from QP207208) VH: EVQLVQSGAEVKKPGASVKVSCKASGYTFTSYIMHWVRQAPGQGLEWIGYINPYNDGTKYNEKFKGRVTLTRDKSTSTVYMELSSLRSEDTAVYYCARLGFTTRNAMDYWGQGTLVTVSS VL: DIVMTQSPDSLAVSLGERATINCKSSQSLLNSGNQKNYLAWYQQKPGQPPKLLIYGASTRESGVPDRFTGSGSGTDFTLTISSVQAEDVAVYYCQNDHSYPFTFGQGTKLEIKR | 93600 |
| QP024025 (antibody, human IgG1, V domains shown, also called IMAB362; 175D10(IMAB362)) VH: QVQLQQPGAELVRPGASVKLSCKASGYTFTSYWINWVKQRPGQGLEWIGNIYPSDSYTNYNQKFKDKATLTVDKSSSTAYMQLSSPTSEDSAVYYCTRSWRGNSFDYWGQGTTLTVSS VL: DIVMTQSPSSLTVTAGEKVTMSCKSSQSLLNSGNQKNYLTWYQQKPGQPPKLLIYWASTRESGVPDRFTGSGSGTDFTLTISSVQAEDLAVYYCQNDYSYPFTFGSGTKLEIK | 51000 |
| QP14641460 (antibody, human IgG1, kappa, V domains shown, Humanized from QP207208) VH: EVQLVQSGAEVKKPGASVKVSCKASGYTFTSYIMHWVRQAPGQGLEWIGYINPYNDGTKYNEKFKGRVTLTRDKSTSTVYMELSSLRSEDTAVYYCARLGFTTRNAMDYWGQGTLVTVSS VL: DIVMTQSPDSLAVSLGERATINCKSSQSLLNSGNQKNYLAWYQQKPGQPPKLLIYGASTRESGVPDRFSGSGSGTDFTLTISSLQAEDVAVYYCQNDHSYPFTFGQGTKLEIKR | 151000 |
| QP14641461 (antibody, human IgG1, kappa, V domains shown, Humanized from QP207208) VH: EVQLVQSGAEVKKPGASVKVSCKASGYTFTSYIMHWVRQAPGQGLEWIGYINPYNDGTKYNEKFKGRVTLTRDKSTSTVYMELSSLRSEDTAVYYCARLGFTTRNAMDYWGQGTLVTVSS VL: DIVMTQSPDSLAVSLGERATINCKSSQSLLNSGNQKNYLAWYQQKPGQPPKLLIYGASTRESGVPDRFTGSGSGTDFTLTISSLQAEDVAVYYCQNDHSYPFTFGQGTKLEIKR | 97500 |
| QP14651460 (antibody, human IgG1, kappa, V domains shown, Humanized from QP207208) VH: EVQLVQSGAEVKKPGASVKVSCKASGYTFTSYIMHWVRQAPGQGLEWIGYINPYNDGTKYNEKFKGRVTLTSDKSTSTVYMELSSLRSEDTAVYYCARLGFTTRNAMDYWGQGTLVTVSS VL: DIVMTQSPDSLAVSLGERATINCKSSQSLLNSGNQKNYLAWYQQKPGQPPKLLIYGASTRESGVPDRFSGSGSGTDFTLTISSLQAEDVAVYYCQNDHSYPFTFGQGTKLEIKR | 134000 |
| QP207208 (antibody, human IgG1, V domains shown, Chimeric; also called 51A3; mouse-derived chimeric antibody QP207208) VH: EVQLQQSGPELVKPGASVKMSCKASGYTFTSYIMHWVKQKPGQGLEWIGYINPYNDGTKYNEKFKGKATLTSDKSSSTVYMELSSLTSEDSAVYCCARLGFTTRNAMDYWGQGTSVTVSS VL: DIVMTQSPSSLSVSAGEKVTMNCKSSQSLLNSGNQKNYLAWYQQKPGQPPKLLIYGASTRESGVPDRFTGSGSGTDFTLTISSVQAEDLAVYYCQNDHSYPFTFGSGTKLEIK | 90200 |
